B1: library; numbered along this chain (parent)
chain: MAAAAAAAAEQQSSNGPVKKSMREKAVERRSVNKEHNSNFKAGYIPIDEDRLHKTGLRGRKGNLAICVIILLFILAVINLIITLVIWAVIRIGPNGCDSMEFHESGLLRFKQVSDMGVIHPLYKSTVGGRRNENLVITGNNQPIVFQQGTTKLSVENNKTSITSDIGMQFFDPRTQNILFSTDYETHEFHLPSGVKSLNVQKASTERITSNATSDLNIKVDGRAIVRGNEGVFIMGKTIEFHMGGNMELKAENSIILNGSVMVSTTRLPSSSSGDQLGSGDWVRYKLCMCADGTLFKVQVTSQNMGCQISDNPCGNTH

Variants of: B1
assay-comment: SGCB cell-surface expression functional score (HA stain, bin4 vs bin1, normalised to synonymous) (log10 ratio); higher = more cell-surface SGCB (functional)
Reported SGCB cell-surface expression functional score (log10) values are given for each entry in this list.
No unit in the answer, please; the number alone is enough.

G244H : 0.75

Using known records, supply SGCB cell-surface expression functional score (log10) for I218K
-1.78

Using known records, supply SGCB cell-surface expression functional score (log10) for I218P
-0.63

Using known records, supply SGCB cell-surface expression functional score (log10) for C290W
0.07

Using known records, supply SGCB cell-surface expression functional score (log10) for F110P
-1.35

Using known records, supply SGCB cell-surface expression functional score (log10) for E188Q
0.29

Using known records, supply SGCB cell-surface expression functional score (log10) for F189W
-1.38

Using known records, supply SGCB cell-surface expression functional score (log10) for R30M
-0.06

Using known records, supply SGCB cell-surface expression functional score (log10) for Y44C
0.8

Using known records, supply SGCB cell-surface expression functional score (log10) for V145G
-0.81

Using known records, supply SGCB cell-surface expression functional score (log10) for N157W
0.34

Using known records, supply SGCB cell-surface expression functional score (log10) for R223T
0.4

Using known records, supply SGCB cell-surface expression functional score (log10) for K159N
-0.03

Using known records, supply SGCB cell-surface expression functional score (log10) for I82A
0.03

Using known records, supply SGCB cell-surface expression functional score (log10) for T163H
-0.2

Using known records, supply SGCB cell-surface expression functional score (log10) for M22C
0.56

Using known records, supply SGCB cell-surface expression functional score (log10) for G245M
1.44
